Assign GI50 to each entry below.
test system: ACHN; assay: NCI tumour cell line growth inhibition, 48 h
Activity calls are given as the source filed them. No stated cut-off is given here; in the data, active = GI50 up to about 1.1 µM and inactive = higher.

Example results:
compound: CCOc1cc(NC(C)=O)ccc1C(=O)NN1C(=O)C(Oc2ccccc2)C1c1ccccc1 (centres undefined)
assay-system: ACHN
GI50: 26.5 µM (inactive)

compound: C[C@]12CC[C@H]3[C@@H](CC[C@]4(O)C[C@@H](O)CC[C@]34CO)[C@@]1(O)CC[C@@H]2C1=CC(=O)OC1
assay-system: ACHN
GI50: 0.467 µM (active)

compound: CCCN(CCC)c1c([N+](=O)[O-])cc(C(=O)N(CC)CC)cc1[N+](=O)[O-]
assay-system: ACHN
GI50: 25.5 µM (inactive)

The recorded GI50 for entry CC(O)C1OC(n2ccc(=O)[nH]c2=O)CC1n1cncn1 (centres undefined) equals > 100 µM (inactive)

* * *

test system: UACC-62; test: NCI tumour cell line growth inhibition, 48 h
The source made the active and inactive calls. Rule as the data show it: active = GI50 up to about 1.1 µM and inactive = higher.
outcome-measure: GI50

compound: O=C(N/N=C(\c1ccccc1)c1ccccn1)NC1CCCCC1
GI50: 38.2 µM (inactive)
//
compound: Cc1ccc(/C=N/Nc2cnccn2)s1
GI50: > 100 µM (inactive)
//
compound: Cc1nc(-c2ccccc2)cn2c1nc1ccccc12
GI50: 14.7 µM (inactive)
//
compound: N#CC1(CCCCl)CCCCC1
GI50: > 100 µM (inactive)
//
compound: N#CC(NNC(=O)c1ccccc1O)c1ccccc1 (stereo unspecified)
GI50: 0.398 µM (active)
//
compound: O=C(Nc1ccccc1)O/N=C(/CBr)c1ccccc1
GI50: 12.3 µM (inactive)

Please state GI50 for every compound in the list that follows.
1. Cc1ccc(S(=O)(=O)OC2=C/C(=N\c3onc(C)c3C)c3ccccc3C2=O)cc1
2. O=C(/C=C/c1ccccc1)NC1C=Nc2ccc(Cl)cc2NC1=O (stereo unspecified)
3. CC(=O)O[C@H]1CC[C@@]2(C)C(=CC[C@@H]3[C@@H]2CC[C@]2(C)c4c(cc(C#N)c(=N)n4C(C)=O)C[C@@H]32)C1
4. Oc1c(CN2CCCC2)ccc2cccnc12
5. Nc1nc(Cl)cc(NCC2(CO)CCCC2)n1
6. O=C(CCl)Nc1ccc(-c2nc3ccccc3s2)cc1
7. CN(C)CCNC(=O)c1cccc2nc3cccc(F)c3nc12

OUTPUT:
1: 20.6 µM (inactive); 2: 26.2 µM (inactive); 3: 15.7 µM (inactive); 4: 26.2 µM (inactive); 5: > 100 µM (inactive); 6: 2.22 µM (inactive); 7: 2.88 µM (inactive)

* * *

tested on: NCI-H460; assay: NCI tumour cell line growth inhibition, 48 h
Calls of active or inactive are those of the source. Cut-off read from the data, not from the text of the source: active = GI50 up to about 1.1 µM and inactive = higher.
Outcome (select one): class 1 = active, class 0 = inactive

compound: COC(=O)C12Oc3ccc(-c4ccc5c(c4O)C(O)=C4C(=O)CC(C)C(O)C4(C(=O)OC)O5)c(O)c3C(O)=C1C(=O)CC(C)C2O (stereo unspecified)
category-label: class 1
--
compound: CC(C)(C)c1cc(OCc2nnc3sc(-c4ccc(Cl)cc4)nn23)c(Cl)cc1OCc1nnc2sc(-c3ccc(Cl)cc3)nn12
category-label: class 0
--
compound: Cc1cc(C)cc(Nc2nnc3n2S(=O)(=O)c2cc(C)c(Cl)cc2S3)c1
category-label: class 0

--- query ---
INPUT: For this compound, state the assay outcome: COc1ccc(C2=NN(C(C)=O)c3nc4ccccc4nc3O2)cc1
OUTPUT: class 0

* * *

system: TK-10; experiment: NCI tumour cell line growth inhibition, 48 h
Calls of active or inactive are those of the source. No stated cut-off is given here; in the data, active = GI50 up to about 1.1 µM and inactive = higher.
Outcome (select one): 1.0 (active), 0.0 (inactive)

These solved cases illustrate the format of a correct answer.
compound: O=C(COC(=O)c1cccc2c(=O)c3ccccc3[nH]c12)Nc1ccc(C(=O)O)cc1
category-label: 0.0
//
compound: O=C(Nc1cc(Cl)c(Cl)cc1Cl)C(=O)C(C(=O)c1ccccc1)C1OC(=O)c2ccccc21 (stereo not given)
category-label: 0.0

INPUT: For this compound, state the assay outcome: Cn1c2ccccc2c(=NNc2ccc(S(=O)(=O)N=C(N)N)cc2)c2ccccc21
OUTPUT: 0.0

INPUT: For this compound, state the assay outcome: O=c1c2cc(S(=O)(=O)Nc3c(Cl)cccc3Cl)ccc2ncn1NS(=O)(=O)c1ccc2ccccc2c1
OUTPUT: 0.0

* * *

Assign GI50 to each entry below.
system: SF-268; assay: NCI tumour cell line growth inhibition, 48 h
The source made the active and inactive calls. Rule as the data show it: active = GI50 up to about 1.1 µM and inactive = higher.

Example results:
molecule: CC(O)C1OC(n2ccc(=O)[nH]c2=O)CC1n1cncn1 (stereo unspecified)
assay-system: SF-268
GI50: > 100 µM (inactive)
//
molecule: CCCCc1c2c(nc3c1CCC/C3=C\c1ccccc1)C(=O)C(CN(C)C)CC2 (stereo unspecified)
assay-system: SF-268
GI50: 16.2 µM (inactive)
//
molecule: COc1ccc2c(n1)Sc1nc3ccccc3nc1N2
assay-system: SF-268
GI50: 58.5 µM (inactive)
//
molecule: COc1cc(/C=C2\C[C@H]3[C@@H]4CCC5=CC(=O)CC[C@]5(C)[C@H]4CC[C@]3(C)C2=O)cc(OC)c1OC
assay-system: SF-268
GI50: 57.3 µM (inactive)
//
molecule: CC1(C)CC(=O)C(CCC(=O)/C=C/c2ccccc2)C(=O)C1
assay-system: SF-268
GI50: > 100 µM (inactive)

Please state GI50 for every molecule in the list that follows.
1. O=C(O)CC(NC(=O)C(F)(F)F)C(=O)NC1Cc2ccccc2OC1=O (stereo unspecified)
2. CC(O)C1OC(O)C2OC(C)(C)OC12 (stereo unspecified)
3. COc1ccc(C=C(c2ccc(OCc3ccccc3)cc2)c2ccc(OCc3ccccc3)cc2)cc1
4. COC(=O)C1CCC(=S)N1C(=O)OCc1ccccc1 (stereo unspecified)
5. Cc1ccccc1/N=N/c1ccc(/N=N/c2c(O)ccc3ccccc23)c(C)c1
6. Cn1cc(-c2n[nH]c(-c3ccc(Cl)cc3)nc2=O)c2ccccc21
7. COC1=CC(c2ccc(Br)[nH]2)=N/C1=C/NCC(C)C

OUTPUT:
> 100 µM (inactive)
> 100 µM (inactive)
> 100 µM (inactive)
98.6 µM (inactive)
70.3 µM (inactive)
7.59 µM (inactive)
2.26 µM (inactive)

Please state GI50 for every molecule in the list that follows.
1. Cc1ccc(/C=N/Nc2cnccn2)s1
2. COc1ccc2nc3cc(Cl)ccc3c(NCCNC(=O)Cn3c(=O)n(C)c(=O)c4c3nc3c(c(=O)n(C)c(=O)n3C)[n+]4[O-])c2c1
3. NC1c2ccccc2Nc2ccccc21
4. N#Cc1ccc(-n2c3ccccc3c3ccc4c(c32)C(=O)C=CC4=O)cc1
5. CCCCn1c(C)c(C(=O)OCC)c2cc(OCc3ccc(C(=O)Nn4c(C)ccc4C)cc3)c(Br)cc21
6. CCSc1nc(N2CCCC2)s[s+]1.[O-][Cl+3]([O-])([O-])[O-]
7. Cc1cc(C)nc(NS(=O)(=O)c2ccc(Nc3c4ccccc4nc4c(C(=O)Nc5ccc(S(=O)(=O)Nc6cc(C)on6)cc5)ccc(Cl)c34)cc2)n1

OUTPUT:
1: > 100 µM (inactive); 2: 17.2 µM (inactive); 3: 3.08 µM (inactive); 4: 2.62 µM (inactive); 5: > 100 µM (inactive); 6: 40.2 µM (inactive); 7: 27.2 µM (inactive)

Please state GI50 for every molecule in the list that follows.
1. N#Cc1nc(-c2cccs2)oc1N
2. CC(=O)OC1C2CCC3C(C)(O)C4CC(O)C(C)(C)C4(O)C(O)CC13CC2(C)O (stereo unspecified)

OUTPUT:
["> 100 µM (inactive)", "> 100 µM (inactive)"]

* * *

system: Hs-578T; test: NCI tumour cell line growth inhibition, 48 h
Structures can show the parent of a compound that is named as a salt. The source made the active and inactive calls. Rule as the data show it: active = GI50 up to about 1.1 µM and inactive = higher.
outcome-measure: GI50

compound: CCCc1c(-c2ccccc2)[nH]c2ccccc2c1=O
GI50: > 100 µM (inactive)

compound: COC(=O)c1ccc2c(c1)CC1(C2)Cc2cc3c(cc2C1)CCC3
GI50: > 100 µM (inactive)

compound: CCOP(=O)(Nc1ccc(-c2ccc(N)cc2)cc1)OCC
GI50: 43.6 µM (inactive)

compound: C1=C2C3=[N+](CCCCC3)CC2Cc2ccsc21 (centres undefined)
GI50: > 100 µM (inactive)

compound: CNCCC=C1c2ccccc2CCc2ccccc21 [NORTRIPTYLINE HYDROCHLORIDE]
GI50: 19.6 µM (inactive)

compound: CC1CCCC2=C1C(c1ccc(Cl)cc1)n1c(s/c(=C\c3ccc(Cl)cc3)c1=O)=N2 (centres undefined)
GI50: > 100 µM (inactive)

compound: N#Cc1c(-c2nc3ccccc3s2)c(=O)oc2cc(O)ccc12
GI50: 20 µM (inactive)

compound: N#Cc1nc(-c2cccc(-c3nc(C#N)c(N)o3)n2)oc1N
GI50: > 100 µM (inactive)

compound: CC(C)(C)n1c(=O)n2n(c1=O)Cc1cccc3cccc(c13)C2
GI50: 12.2 µM (inactive)

compound: Clc1ccc(C2=NN=C3C(c4ccccc4)=Nc4ccccc4N3C2)cc1
GI50: 2.09 µM (inactive)

Please state GI50 for every compound in the list that follows.
1. C[C@]12CC[C@H]3[C@@H](CC[C@]4(O)C[C@@H](O)CC[C@]34CO)[C@@]1(O)CC[C@@H]2C1=CC(=O)OC1 [STROPHANTHIDOL]
2. O=C(O)[C@@]1(Cc2ccc(O)cc2)C[C@@H]2Cc3ccccc3N2N1
3. COc1ccc(C2SCC(=O)N2NC(=O)C(C)Oc2ccccc2C)cc1 (centres undefined)
4. CCOC(=O)c1nnc2c(C#N)c(-c3ccccc3)c(C)n2c1N
5. c1ccc2cc(CNCCOCCOCCNCc3ccc4ccccc4c3)ccc2c1

OUTPUT:
1. 1.46 µM (inactive)
2. > 100 µM (inactive)
3. > 100 µM (inactive)
4. 24.6 µM (inactive)
5. 1.57 µM (inactive)

Please state GI50 for every compound in the list that follows.
1. O=[N+]([O-])/C(C(Cl)=C(Cl)Cl)=C(\Nc1cccc2ccccc12)n1nnc2ccccc21
2. CNc1ccc(C)cc1S(=O)(=O)c1ccccc1[N+](=O)[O-]
3. COc1ccc(/C=C2\N=C(c3ccccc3)N(C3Nc4cc5c(cc4S3)NC(N3C(=O)/C(=C/c4ccc(OC)cc4)N=C3c3ccccc3)S5)C2=O)cc1 (centres undefined)

OUTPUT:
1. 9.31 µM (inactive)
2. 55.7 µM (inactive)
3. 48.5 µM (inactive)
